pIC50 tested on SARS-CoV-2 3CL^pro (Severe acute respiratory syndrome coronavirus 2): recorded values
Units for pIC50: none; it is -log10 of a concentration expressed in mol/L.

Some solved entries appear below for comparison.
COMPOUND	pIC50
CC[C@H](C)[C@H](NC(=O)C1(F)CC1)C(=O)N1C[C@H]2[C@@H]([C@H]1C(=O)NN(C[C@H]1CC(C)(C)NC1=O)C(=O)[C@@H](F)Cl)C2(C)C [Example 19]	7.72
CC(C)(C)[C@H](NC(=O)[C@@H]1CC1(F)F)C(=O)N1C[C@@H]2CCC[C@@H]2[C@H]1C(=O)NN(C[C@H]1C(=O)N[C@@H]2C[C@@H]21)C(=O)[C@H](F)Cl [Example 35]	8.00
CCC(CC)[C@H](NC(=O)C(F)F)C(=O)N1C[C@@H]2CCC[C@@H]2[C@H]1C(=O)NN(C[C@H]1CC(C)(C)NC1=O)C(=O)[C@@H](F)Cl [Example 18]	7.92
CC[C@H](C)[C@H](NC(=O)C1(F)CC1)C(=O)N1C[C@H]2[C@@H]([C@H]1C(=O)NN(C[C@H]1CC(C)(C)NC1=O)C(=O)[C@H](F)Cl)C2(C)C [Example 1b]	7.89

Given item C[C@@H]1C[C@@H](CN(NC(=O)[C@@H]2[C@H]3CCC[C@H]3CN2C(=O)[C@@H](NC(=O)[C@@H]2CC2(F)F)C(C)(C)C)C(=O)[C@@H](F)Cl)C(=O)N1 [Example 30] , the value recorded as its pIC50 is 8.10
